assay-protocol: Brain/cerebrospinal fluid activity test
Assay type: in vivo, rat
condition-details: rat, cerebrospinal fluid; SD type male rats, 2 hours after oral administration (10 mg/kg); read-out: cerebrospinal fluid concentration
experimental-endpoint: concentration at 2 h (nM)
Report as a plain number; the unit nM is understood.

Incoming: Entry CCc1nc2ccccc2c(=O)n1-c1ccc(OCCCN2CCCCC2)cc1 : reported concentration at 2 h = ?
Outgoing: 142

----------
study-target: human histamine H3 receptor (Homo sapiens, UniProt Q9Y5N1)
Sequence (Q9Y5N1 whole entry): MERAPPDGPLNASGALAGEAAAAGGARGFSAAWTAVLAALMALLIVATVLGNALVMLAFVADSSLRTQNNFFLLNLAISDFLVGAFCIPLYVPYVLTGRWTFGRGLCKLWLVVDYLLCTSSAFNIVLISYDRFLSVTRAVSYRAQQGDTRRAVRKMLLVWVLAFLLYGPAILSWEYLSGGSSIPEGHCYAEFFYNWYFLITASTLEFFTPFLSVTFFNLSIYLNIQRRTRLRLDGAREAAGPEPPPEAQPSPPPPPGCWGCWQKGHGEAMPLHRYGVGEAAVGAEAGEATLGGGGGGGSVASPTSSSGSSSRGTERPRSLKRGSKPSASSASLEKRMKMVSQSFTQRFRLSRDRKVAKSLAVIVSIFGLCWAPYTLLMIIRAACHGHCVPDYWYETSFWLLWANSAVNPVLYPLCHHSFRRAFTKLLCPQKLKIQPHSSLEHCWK
experimental-endpoint: pIC50
Keep in mind that pIC50 stands for -log10 of concentration in molar terms.

Incoming: Entry CCc1nc2ccccc2c(=O)n1-c1ccc(OCCCN2CCCCC2)cc1 : reported pIC50 = ?
Outgoing: 7.82
